Assay: Metabolic stability in human liver microsomes assessed as compound remaining after 30 mins
Assay type: ADME, Microsome
Details: read-out: Stability
Listing: remaining at 0.5 h of selected compounds
Value expressed in %; do not type the unit.

Examples with answers:
COc1cc(NCc2cc3ccc(C)cc3[nH]c2=O)ccc1-n1cnnn1 | 9.6
COc1cc(NCc2cc3cc(Cl)ccc3[nH]c2=O)cc(OC)c1C#N | 80
COc1nc(N[C@@H](C)c2cc3cc(Cl)c(OCC4CC4)cc3[nH]c2=O)ncc1C#N | 100
Cc1nnnn1-c1ccc(NCc2cc3cc(Cl)ccc3[nH]c2=O)cc1 | 100
COc1cc(NCc2cc3cc(Cl)c(OCCN4CCCC4=O)cc3[nH]c2=O)ccc1C#N | 2.5
Cc1nc(NC2(c3cc4cc(Cl)ccc4[nH]c3=O)CC2)ccc1C#N | 91
COc1nc(C#N)ccc1N[C@@H](C)c1cc2cc(Cl)ccc2[nH]c1=O | 100
N#Cc1ccc(NCc2cc3cc(Cl)ccc3[nH]c2=O)cc1C(F)(F)F | 100

Could you now look at the following compound, please?
The recorded remaining at 0.5 h for COc1cc(NCc2cc3cc(C(C)(C)C)ccc3[nH]c2=O)ccc1C#N is 6

---

Listing: Cmax of selected compounds
Assay: Total Cmax in BALB/c mouse at 5 mg/kg, po after 1 hr
Assay type: ADME, organism-based
Set-up: dose 5 mg/kg, route oral
Settings: in vivo
Value expressed in nM; do not type the unit.

COc1cc(NCc2cc3cc(Cl)ccc3[nH]c2=O)ccc1C#N | 1060

The recorded Cmax for Cc1nc(NCc2cc3cc(Cl)ccc3[nH]c2=O)ccc1C#N is 480

---

Listing: remaining at 0.5 h of selected compounds
Assay: Metabolic stability in mouse liver microsomes assessed as compound remaining after 30 mins
Assay type: ADME, Microsome
Conditions: read-out: Stability
Value expressed in %; do not type the unit.

COc1cc(NCc2cc3cc(Cl)c(OCCN4CCCC4=O)cc3[nH]c2=O)ccc1C#N | 14.3

The recorded remaining at 0.5 h for COc1cc(NCc2cc3ccc(C)cc3[nH]c2=O)ccc1-n1cnnn1 is 17.8

The recorded remaining at 0.5 h for N#Cc1ccc(NCc2cc3cc(Cl)ccc3[nH]c2=O)cc1O is 85

The recorded remaining at 0.5 h for COc1cc(NCc2cc3cc(Cl)c(OCc4cc(C)n(C)n4)cc3[nH]c2=O)ccc1C#N is 52.7

The recorded remaining at 0.5 h for COc1cc2[nH]c(=O)c(CNc3ccc(C#N)c(OC)c3)cc2cc1Cl is 94.9

The recorded remaining at 0.5 h for N#Cc1ccc(NCc2cc3cc(Cl)ccc3[nH]c2=O)cc1C(F)(F)F is 100

The recorded remaining at 0.5 h for Cc1cc(NCc2cc3cc(Cl)ccc3[nH]c2=O)ncc1C#N is 75

---

Listing: half-life of selected molecules
Assay: Half-life in rat at 1 mg/kg, iv or 5 mg/kg, po
Type: ADME, organism-based
Settings: in vivo
Value expressed in h; do not type the unit.

COc1nc(N[C@@H](C)c2cc3cc(Cl)ccc3[nH]c2=O)ncc1C#N | 2.2

The recorded half-life for COc1cc2[nH]c(=O)c([C@H](C)Nc3ncc(C#N)c(OC)n3)cc2cc1Cl is 2.6

---

Listing: IC50 of selected compounds
Target: Isocitrate dehydrogenase [NADP] cytoplasmic (Homo sapiens)
Sequence (O75874 whole entry): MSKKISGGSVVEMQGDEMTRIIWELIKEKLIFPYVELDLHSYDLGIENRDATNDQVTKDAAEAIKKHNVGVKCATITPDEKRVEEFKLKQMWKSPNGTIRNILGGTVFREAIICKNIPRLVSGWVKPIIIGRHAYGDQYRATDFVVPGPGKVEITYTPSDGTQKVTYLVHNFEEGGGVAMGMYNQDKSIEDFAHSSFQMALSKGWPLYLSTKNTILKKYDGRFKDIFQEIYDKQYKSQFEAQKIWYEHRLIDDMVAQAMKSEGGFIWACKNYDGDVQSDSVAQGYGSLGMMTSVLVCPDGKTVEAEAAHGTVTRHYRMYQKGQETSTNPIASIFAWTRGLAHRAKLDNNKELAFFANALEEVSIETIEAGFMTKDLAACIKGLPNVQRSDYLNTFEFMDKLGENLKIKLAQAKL
Value expressed in µM; do not type the unit.

COc1cc(NCc2cc3cc(Cl)ccc3[nH]c2=O)ccc1C#N | 100

Could you now look at the following compound, please?
The recorded IC50 for Cc1nc(NCc2cc3cc(Cl)ccc3[nH]c2=O)ccc1C#N is 75

---

Listing: solubility kinetic of selected compounds
Assay: Kinetic solubility of the compound
Format: physicochemical
Settings: read-out: Kinetic_solubility

Examples with answers:
COc1nc(C#N)ccc1N[C@@H](C)c1cc2cc(Cl)ccc2[nH]c1=O | 4.8 µM
COc1nc(N[C@@H](C)c2cc3cc(Cl)ccc3[nH]c2=O)ccc1C#N | 0.08 µM
COc1nc(N[C@@H](C)c2cc3cc(Cl)c(OCc4ccccn4)cc3[nH]c2=O)ncc1C#N | 1.5 µM
COc1cc(NCc2cc3cc(Cl)ccc3[nH]c2=O)ccc1S(C)(=O)=O | 32.5 µM
N#Cc1ccc(NCc2cc3cc(Cl)ccc3[nH]c2=O)cc1 | 0.21 µM
Cc1nnnn1-c1ccc(NCc2cc3cc(Cl)ccc3[nH]c2=O)cc1 | 1.2 µM
Cc1nc(NC(C)c2cc3cc(Cl)ccc3[nH]c2=O)ccc1C#N (racemic) | 12.2 µM
COc1cc(NCc2cc3cc(Cl)ccc3n(C)c2=O)ccc1-n1cnnn1 | < 0.01 µM

The recorded solubility kinetic for O=c1[nH]c2ccc(Cl)cc2cc1CNc1ccc(-n2ccnc2)cc1 is 1.57 µM

The recorded solubility kinetic for COc1cc(NCc2cc3cc(C)ccc3[nH]c2=O)ccc1C#N is 1.33 µM

The recorded solubility kinetic for COc1cc(NCc2cc3cc(Cl)ccc3[nH]c2=O)ccc1-n1cnnn1 is < 0.01 µM

---

Listing: remaining at 0.5 h of selected molecules
Assay: Metabolic stability in mouse liver microsomes assessed as compound remaining after 30 mins
Assay type: ADME, Microsome
Details: read-out: Stability

N#Cc1ccc(NCc2cc3cc(Cl)ccc3[nH]c2=O)nc1 | 75%
COc1nc(N[C@@H](C)c2cc3cc(Cl)ccc3[nH]c2=O)ncc1C#N | 100 to 106%

The recorded remaining at 0.5 h for COc1cc(NCc2cc3cc(Cl)ccc3[nH]c2=O)ccc1-n1cnnn1 is 89.9%

---

Experiment: Protein binding in dog plasma
Format: ADME, cell-free, Canis lupus familiaris
Details: read-out: PPB (converted)
PROPERTY MEASURED: fraction unbound
Give the figure by itself; no unit, no explanation.

COc1cc2[nH]c(=O)c([C@H](C)Nc3ncc(C#N)c(OC)n3)cc2cc1Cl | 0.0228

Could you now look at the following compound, please?
The recorded fraction unbound for COc1nc(N[C@@H](C)c2cc3cc(Cl)ccc3[nH]c2=O)ncc1C#N is 0.0369

---

Assay: Half-life in mouse at 1 mg/kg, iv or 5 mg/kg, po
Format: ADME, organism-based
Conditions: in vivo
PROPERTY MEASURED: half-life (h)
Value expressed in h; do not type the unit.

COc1cc2[nH]c(=O)c([C@H](C)Nc3ncc(C#N)c(OC)n3)cc2cc1Cl | 3.5

The recorded half-life for COc1nc(N[C@@H](C)c2cc3cc(Cl)ccc3[nH]c2=O)ncc1C#N is 10

---

Listing: log10 solubility kinetic of selected compounds
Experiment: Kinetic solubility of the compound
Format: physicochemical
Conditions: read-out: Kinetic_solubility
The base-10 logarithm of solubility kinetic, taken with solubility kinetic in µM, is what appears here.

Examples with answers:
COc1nc(N[C@@H](C)c2cc3cc(Cl)c(F)cc3[nH]c2=O)ncc1C#N | 0.08
COc1cc(NCc2cc3ccccc3[nH]c2=O)ccc1C#N | 0.79
Cc1cc(NCc2cc3cc(Cl)ccc3[nH]c2=O)ncc1C#N | -0.10
COc1cc(NCc2cc3cc(Cl)c(OCC4CCCCN4C)cc3[nH]c2=O)ccc1C#N (stereo not given) | 0.13
Cc1nc(N[C@@H](C)c2cc3cc(Cl)ccc3[nH]c2=O)ccc1C#N | 0.76

The recorded log10 solubility kinetic for COc1nc(N[C@@H](C)c2cc3cc(Cl)ccc3[nH]c2=O)ncc1C#N is 1.02

The recorded log10 solubility kinetic for COc1cc2[nH]c(=O)c([C@H](C)Nc3ncc(C#N)c(OC)n3)cc2cc1Cl is 0.76

The recorded log10 solubility kinetic for N#Cc1ccc(NCc2cc3cc(Cl)ccc3[nH]c2=O)nc1 is -0.38

The recorded log10 solubility kinetic for COc1cc(NCc2cc3cc(Cl)c(OCCN4CCCC4=O)cc3[nH]c2=O)ccc1C#N is -0.28

The recorded log10 solubility kinetic for COc1nc(N[C@@H](C)c2cc3cc(Cl)c(OC(C)C)cc3[nH]c2=O)ncc1C#N is -0.37

The recorded log10 solubility kinetic for Cc1nc(N[C@H](C)c2cc3cc(Cl)ccc3[nH]c2=O)ccc1C#N is 0.90

---

Assay: Apparent permeability of the compound across basolateral side to apical side in human Caco2 cells
Format: ADME, cell-based
Settings: Caco-2
Listing: Papp B→A of selected compounds
Value expressed in ×10⁻⁶ cm/s; do not type the unit.

COc1nc(N[C@@H](C)c2cc3cc(Cl)ccc3[nH]c2=O)ncc1C#N | 8.64

Could you now look at the following compound, please?
The recorded Papp B→A for COc1cc2[nH]c(=O)c([C@H](C)Nc3ncc(C#N)c(OC)n3)cc2cc1Cl is 9.47

---

Target: PXR (Homo sapiens, UniProt O75469)
Sequence (O75469 whole entry): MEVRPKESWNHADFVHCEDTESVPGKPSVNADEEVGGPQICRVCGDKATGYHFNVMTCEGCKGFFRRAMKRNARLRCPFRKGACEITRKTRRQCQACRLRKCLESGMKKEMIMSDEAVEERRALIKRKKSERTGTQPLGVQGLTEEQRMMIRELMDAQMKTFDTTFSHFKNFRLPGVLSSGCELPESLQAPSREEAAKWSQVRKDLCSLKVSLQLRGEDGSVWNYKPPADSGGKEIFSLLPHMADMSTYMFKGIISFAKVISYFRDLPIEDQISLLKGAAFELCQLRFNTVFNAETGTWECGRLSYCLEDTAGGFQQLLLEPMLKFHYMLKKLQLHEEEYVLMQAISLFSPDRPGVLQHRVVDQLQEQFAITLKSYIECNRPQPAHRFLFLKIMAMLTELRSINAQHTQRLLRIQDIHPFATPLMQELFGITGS
Test: Activation of PXR (unknown origin) stably expressed in human HepG2 cells at 10 uM relative to rifampicin
Assay type: ADME, cell-based
Conditions: HepG2 cells stably expressing PXR, read-out: Activity
PROPERTY MEASURED: activity at 10 µM (%)
Value expressed in %; do not type the unit.

The recorded activity at 10 µM for COc1nc(N[C@@H](C)c2cc3cc(Cl)ccc3[nH]c2=O)ncc1C#N is 15
